protocol-summary: Quantitative High-Throughput drug screen in 47 multiple myeloma cell lines against the NCATS MIPE library collection: KMS26_JCRB cell viability assay (AID 1918975); note: nearly all actives have a fitted effect of over 45% in size
measurement-setup: KMS26 myeloma cells viability, CellTiter-Glo ATP, 48 h; series mostly up to 45.8 µM
Results filed as inconclusive are left out. Calls of active or inactive are those of the source. Calls come from the whole dose curve; as a rule, active = well fitted cell-killing curve with a large enough effect; inconclusive = small, poorly fitted or top-dose-only effect, or effect the other way; inactive = no such curve, though single readings can be large or run the other way.
Give one outcome, nothing more. List: 1.0 (active), 0.0 (inactive)

Use these answered entries as a reference point.
O=C(NCCCCN1CCOCC1)c1cc2ccccc2o1 :: 0.0
CC1C(=O)OC2C(O)C34C5CC(C(C)(C)C)C36C(OC(=O)C6O)OC4(C(=O)O5)C12O (centres undefined) :: 0.0
CO[C@H]1/C=C\O[C@@]2(C)Oc3c(C)c(O)c4c(O)c(c(C=NN5CCN(C6CCCC6)CC5)c(O)c4c3C2=O)NC(=O)C(C)=CC=C[C@H](C)[C@H](O)[C@@H](C)[C@@H](O)[C@@H](C)[C@H](OC(C)=O)[C@H]1C :: 1.0
C[C@H]1[C@H](O)O[C@@H]2O[C@@]3(C)CC[C@@H]4[C@H](C)CC[C@@H]1[C@@]24OO3 :: 1.0

Request: What did this assay record as the result for "Cc1cccc(-c2[nH]c(C(C)(C)C)nc2-c2ccc3c(c2)OCO3)n1" ?
Result: 1.0

Request: Hi, do you know how CN1CCN2c3ncccc3Cc3ccccc3C2C1 (centres undefined) came out in this test?
Result: 0.0

Request: Fill in: this test's call for CC=C1C2C=C(C)CC1(N)c1ccc(=O)[nH]c1C2 (centres undefined) is ___
Result: 0.0

Request: Please share the test call associated with CN1C(=O)C(Cc2c[nH]c3ccccc23)NC1=S (centres undefined) .
Result: 0.0

Request: Outcome logged for "CNC(=O)[C@H](CC1=CN=C2C=CCC=C12)NC(=O)[C@@H](CC(=O)NO)CC(C)C" in this assay:
Result: 0.0
